- tgt: Tyrosine-protein kinase BTK (Homo sapiens, UniProt Q06187)
- Sequence (Q06187 whole entry): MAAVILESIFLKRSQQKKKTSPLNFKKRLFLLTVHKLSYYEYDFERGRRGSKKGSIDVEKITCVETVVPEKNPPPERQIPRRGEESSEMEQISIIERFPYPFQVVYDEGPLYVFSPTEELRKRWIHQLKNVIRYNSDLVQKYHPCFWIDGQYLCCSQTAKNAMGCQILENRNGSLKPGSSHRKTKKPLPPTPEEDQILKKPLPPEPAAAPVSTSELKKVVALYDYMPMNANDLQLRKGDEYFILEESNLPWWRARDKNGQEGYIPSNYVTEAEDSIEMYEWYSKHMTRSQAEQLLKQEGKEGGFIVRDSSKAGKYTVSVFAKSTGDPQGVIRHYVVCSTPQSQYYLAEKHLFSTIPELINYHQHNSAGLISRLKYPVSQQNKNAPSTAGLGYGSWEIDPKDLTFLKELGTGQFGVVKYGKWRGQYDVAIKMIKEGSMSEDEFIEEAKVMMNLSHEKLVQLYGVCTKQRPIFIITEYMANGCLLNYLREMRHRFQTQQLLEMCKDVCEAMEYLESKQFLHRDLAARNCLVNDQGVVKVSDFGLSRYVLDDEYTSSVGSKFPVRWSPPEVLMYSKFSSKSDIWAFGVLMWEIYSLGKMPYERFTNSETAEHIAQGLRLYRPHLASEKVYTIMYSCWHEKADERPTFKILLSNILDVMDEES
- protocol_details: Inhibition of BTK (unknown origin) by ADP-Glo kinase assay
pIC50: −log10 of the molar value.
readout: pIC50

In [3]: df
Out[3]:
                                test_smiles  readout  observed_measurement
0  C=CC(=O)Nc1cccc(Oc2nc(Nc3ccc(OCCCN4CCOCC4)cc3)nc3ccsc23)c1    pIC50                < 7.00

In: Consider the compound shown here: C=CC(=O)Nc1cccc(Oc2nc(Nc3ccc(CN4CCOCC4)cc3)nc3ccsc23)c1 What is its recorded pIC50?
Out: < 7.00

In: Consider the compound shown here: C=CC(=O)Nc1cccc(Oc2nc(Nc3ccc(OCCCN4CCOCC4)c(Cl)c3)nc3ccsc23)c1 What is its recorded pIC50?
Out: ≤ 7.20

In: Consider the compound shown here: C=CC(=O)Nc1cccc(Oc2nc(Nc3ccc(OCCN4CCOCC4)cc3)nc3ccsc23)c1 What is its recorded pIC50?
Out: < 7.00

In: Consider the compound shown here: C=CC(=O)Nc1cccc(Nc2nc(Nc3ccc(CN4CCOCC4)cc3)nc3ccsc23)c1 What is its recorded pIC50?
Out: < 7.00

In: Consider the compound shown here: C=CC(=O)Nc1cccc(Oc2nc(Nc3ccc(SCCCN4CCOCC4)cc3)nc3ccsc23)c1 What is its recorded pIC50?
Out: < 7.00

Origin of values: ChEMBL document CHEMBL4613238
